Tested On: sigma receptors (Cavia porcellus, UniProt Q60492)
Construct: The brain was immediately extracted; The cerebellum was removed from the brain; from tissue; host or cells: guinea pig brain without cerebellum, membrane pellet
Sequence (Q60492 whole entry): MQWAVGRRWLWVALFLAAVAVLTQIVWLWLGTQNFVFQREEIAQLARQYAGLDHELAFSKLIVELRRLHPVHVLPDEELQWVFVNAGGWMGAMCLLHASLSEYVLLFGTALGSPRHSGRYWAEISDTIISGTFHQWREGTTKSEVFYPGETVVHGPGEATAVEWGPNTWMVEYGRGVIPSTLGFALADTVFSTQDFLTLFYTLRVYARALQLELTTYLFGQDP
Test Method Notes: Receptor binding test: inhibition of tritium-labeled (+) pentazocine binding to brain homogenate
Design: species or system male guinea pig
Study Conditions: inhibitive concentration at 50% (IC50), Receptor Sigma-1
Can you tell me IC50 for the items I'm about to list?
Numbers only, in µM.

Worked set:
{"Molecule": "Cc1ccc(C)c(N2CCN([C@@H]3Cc4c(I)cccc4C[C@H]3O)CC2)c1 (racemic)", "IC50 (µM)": 5.57}
{"Molecule": "Cc1ccc(C)c(N2CCN([C@@H]3Cc4ccc(I)cc4C[C@H]3O)CC2)c1 (racemic)", "IC50 (µM)": 0.203}
{"Molecule": "Cc1ccc(N2CCN([C@@H]3Cc4c(I)cccc4C[C@H]3O)CC2)cc1 (racemic)", "IC50 (µM)": 4.78}

Shift focus to the following entry.
Query block: Need IC50 of Cc1cccc(N2CCN([C@@H]3Cc4c(I)cccc4C[C@H]3O)CC2)c1C (racemic) , thanks.
Result block: 4.56

Recorded values, source patent EP1205473A1.
